The measurements presented in this section are drawn from patent US11649460B2.

- System: NHF human foreskin skin fibroblasts
- protocol notes: SRB cell proliferation (cytotoxicity) assay, NHF
- applied conditions: read-out: IC50: Concentration to inhibit 50% of cell growth; NHF
- Source text: The XLSTAT software was used to determine the IC50, TGI and LC50 values using the four-parameter logistic curve equation.
Property: pIC50; scope: individual molecules
In plain terms, pIC50 is the concentration in mol/L turned into minus its base-10 logarithm.

# annotated cases, reported pIC50 shown
AGCTGACACAGCAGGTTGGTGCCCAAAAGAGCCAATCCACGACGACACCCCAAAAACCATATCACGAATACCCGAGTCGAGCAATCTCGAAAT (nucleic acid, chemistry not given here) DNA: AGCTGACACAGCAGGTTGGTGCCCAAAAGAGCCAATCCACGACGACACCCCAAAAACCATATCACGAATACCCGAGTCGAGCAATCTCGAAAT : 4.33
CTGACACAGCAGGTTGGTGCCAACTAACACCATAAGAATACCCCGCTCCAAATAAGCCCACACGTAAACCCGAGTCGAGCAATCTCGAAAT (nucleic acid, chemistry not given here, DNA aptamer that recognizes human galectin-1) DNA: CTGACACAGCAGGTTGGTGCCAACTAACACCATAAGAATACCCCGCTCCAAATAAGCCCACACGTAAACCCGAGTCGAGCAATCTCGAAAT : 4.45
AGCTGACACAGCAGGTTGGTGCCAACAAGAAAAGAAACCGTTACAGAAGACACTACAGAATAAGTGAAAAGCCGAGTCGAGCAATCTCGAAAT (nucleic acid, chemistry not given here) DNA: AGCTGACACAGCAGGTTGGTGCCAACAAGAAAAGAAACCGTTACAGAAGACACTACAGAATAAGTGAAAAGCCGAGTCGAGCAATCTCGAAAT : 4.45

# input Supply pIC50 value. Item: AGCTGACACAGCAGGTTGGTGCGCCCAATACAGGCGCAGTATCTGTCCGTGGGCCGGGTAAAAGTTACGGACCGAGTCGAGCAATCTCGAAAT (nucleic acid, chemistry not given here) DNA: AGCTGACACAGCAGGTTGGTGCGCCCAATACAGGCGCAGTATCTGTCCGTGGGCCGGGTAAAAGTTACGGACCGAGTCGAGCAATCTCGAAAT
# output 4.47
